experiment: chemical genetic growth profiling, strain panel (AID 1159580);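 note: tested at 20 µM; growth read once vehicle control cultures reached saturation at 30 °C; 1 = growth at the plate median or of vehicle wells; lower values mean less growth of the strain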; conditions: S. cerevisiae deletion strains, growth OD, locus YOR069W, strain VPS5, hits give low values
In all, about 5,500 compounds went through this assay and about 2,000 (36%) were called active. Not shown: some 18% with an inconclusive outcome. This is one part of the list.
Observed Property: normalized growth
Reply briefly: the number, and no unit.

Below, 3 molecules whose answers are already recorded.
# Molecule, normalized growth
records = [
    ("CNC(=O)O/N=C(\\C)SC", 1),
    ("N[C@@H](Cc1ccc(N(CCCl)CCCl)cc1)C(=O)O", 0.998),
    ("O=C(O)CCCc1ccccc1", 1),
]

Asked: Given NCCc1cnc[nH]1 , state its recorded normalized growth.
Given back: 1

Asked: Also O=C(O)CCCc1ccc(N(CCCl)CCCl)cc1 , if possible.
Given back: 0.975

Asked: Also COC(=O)[C@@H]1OC(=O)C2OC23[C@@]1(C)CCC1[C@]2(C)C(C[C@H](O)[C@]13C)C(C)(C)[C@H](OC(C)=O)C[C@@H]2OC(C)=O (stereo partly specified) , if possible.
Given back: 1.01

----------
assay: chemical genetic growth profiling, strain panel (AID 1159580); settings: S. cerevisiae deletion strains, growth OD, locus YOR231W, strain MKK1, hits give low values
In all, about 5,500 compounds went through this assay and about 2,000 (36%) were called active. Roughly 18% stayed inconclusive and do not appear here. This is one part of the list.
Observed Property: normalized growth
Reply briefly: the number, and no unit.

Below, 5 compounds whose answers are already recorded.
# Compound, Observed Property, Endpoint Value
data = [
    ("C=C[C@@](C)(O)CCC1C(=C)C[C@H](O)C2C(C)(C)CCCC12C (some centres not stated)", "normalized growth", 0.923),
    ("OCCc1ccccc1", "normalized growth", 0.973),
    ("CC(C)(C)c1ccc(N/N=C(\\C#N)C(N)=O)cc1", "normalized growth", 0.249),
    ("COC(=O)C[C@H]1C2(C)CC34OC5(C)O[C@@]6([C@H](OC(C)=O)C(OC(C)=O)[C@]7(C)C(/C(=C(/O)C(C)C)C(=O)O[C@H]7c7ccoc7)[C@@]6(O5)[C@H](OC(C)=O)[C@@]3(O)C2OC(=O)C(C)C)[C@]14C (some centres not stated)", "normalized growth", 0.981),
    ("COc1ccc(-c2coc3cc(O)ccc3c2=O)cc1", "normalized growth", 0.934),
]

Asked: Given O=C1C(Cl)=C(Cl)C(=O)C(Cl)=C1Cl , state its recorded normalized growth.
Given back: 0.124

Asked: Also COc1ccc2c(c1)OC/C(=C/c1ccc(OC)c(OC)c1)C2=O , if possible.
Given back: 0.921

Asked: Also O=C(O)CCCc1ccc(N(CCCl)CCCl)cc1 , if possible.
Given back: 0.84

----------
test: chemical genetic growth profiling, strain panel (AID 1159580); conditions: S. cerevisiae deletion strains, growth OD, locus YIL073C, strain SPO22, hits give low values
Hit rate of the full screen: of about 5,500 compounds, about 2,000 (36%) were called active. Roughly 18% stayed inconclusive and do not appear here. The list shows a part of the results.
The following compounds are shown together with reported normalized growth values.
Reply briefly: the number, and no unit.

# Compound, normalized growth
data = [
    ("COc1cc(CNC(=O)CCCC/C=C/C(C)C)ccc1O", 0.972),
    ("COC(=O)/C=C/C(C)=C/C=C/C(C)=C/C=C/C=C(C)/C=C/C=C(C)/C=C/C(=O)O", 1.01),
    ("O=C(O)CCCc1ccccc1", 1.06),
    ("CCCCCCCCC(=O)NCc1ccc(O)c(OC)c1", 0.958),
    ("NCCc1cnc[nH]1", 1.03),
    ("CN1CC(=O)N=C1N", 1.03),
]

Next compound, normalized growth to be filled in.
Asked: Given C[C@H]1COc2c(N3CCN(C)CC3)c(F)cc3c(=O)c(C(=O)O)cn1c23 , state its recorded normalized growth.
Given back: 1.05

----------
test: chemical genetic growth profiling, strain panel (AID 1159580); details: S. cerevisiae deletion strains, growth OD, locus YGR135W, strain pre9, hits give low values
Among all 5,500 compounds or so, about 2,000 (36%) were called active. About 18% were inconclusive and are not listed. The list shows a part of the results.
Exam item: assign YES to entries whose normalized growth is below 1 and NO to entries at or above 1. Note that a value of exactly 1 receives NO.

# Compound, Qualitative Label
measured = [
    ("COc1ccc2c(c1)OC/C(=C\\c1ccc(OC)c(O)c1)C2=O", "YES"),
    ("C=C[C@@](C)(O)CCC1C(=C)C[C@H](OC(C)=O)C2C(C)(C)CCCC12C (stereo partly specified)", "NO"),
]

Then there is this compound:
Asked: Just wondering, is normalized growth of CN1C2CCC1CC(OC(c1ccccc1)c1ccccc1)C2 (stereo unspecified) below 1?
Given back: YES

----------
The following molecules are shown together with reported normalized growth values.
experiment: chemical genetic growth profiling, strain panel (AID 1159580);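 note: tested at 20 µM; growth read once vehicle control cultures reached saturation at 30 °C; 1 = growth at the plate median or of vehicle wells; lower values mean less growth of the strain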; settings: S. cerevisiae deletion strains, growth OD, locus YGL173C, strain kem1, hits give low values
Screen size: about 5,500 compounds; about 2,000 (36%) were called active. Inconclusive results (about 18%) are left out. The list shows a part of the results.
Reply briefly: the number, and no unit.

Below, 5 molecules whose answers are already recorded.
# Molecule, normalized growth
measured = [
    ("COC(=O)c1cc(=O)c(O)c2c(O)c(O)ccc2c1", 0.984),
    ("CCN(CC)C(=O)N1CCN(C)CC1", 0.986),
    ("COc1ccc(C(=O)CC(=O)O)c2c1C=CC(C)(C)O2", 0.99),
    ("COc1cc(CNC(=O)CCCC/C=C/C(C)C)ccc1O", 0.978),
    ("COc1cc([C@@H]2c3cc4c(cc3C(OC3O[C@@H]5COC(C)O[C@H]5[C@H](O)[C@H]3O)C3COC(=O)[C@@H]32)OCO4)cc(OC)c1O (stereo partly specified)", 1.02),
]

Asked: Given O=C(c1ccc(OCCN2CCCCC2)cc1)c1c(-c2ccc(O)cc2)sc2cc(O)ccc12 , state its recorded normalized growth.
Given back: 1.01

----------
assay: chemical genetic growth profiling, strain panel (AID 1159580);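 note: tested at 20 µM; growth read once vehicle control cultures reached saturation at 30 °C; 1 = growth at the plate median or of vehicle wells; lower values mean less growth of the strain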; conditions: S. cerevisiae deletion strains, growth OD, locus YDR388W, hits give low values
In all, about 5,500 compounds went through this assay and about 2,000 (36%) were called active. Roughly 18% stayed inconclusive and do not appear here. The list shows a part of the results.
The following compounds are shown together with reported normalized growth values.
Reply briefly: the number, and no unit.

Below, 3 compounds whose answers are already recorded.
# Compound, Observed Property, Endpoint Value
records = [
    ("Clc1ccc(C(OCCN2CCCCC2)c2ccccc2)cc1 (stereo not given)", "normalized growth", 0.924),
    ("COc1ccc(C(=O)CC(=O)O)c2c1C=CC(C)(C)O2", "normalized growth", 1.01),
    ("CC(=O)Oc1cc(OC(C)=O)c2c(c1)O[C@H](c1ccc(OC(C)=O)c(OC(C)=O)c1)[C@H](OC(C)=O)C2", "normalized growth", 1.03),
]

Asked: Given Nc1nc(=S)c2[nH]cnc2[nH]1 , state its recorded normalized growth.
Given back: 0.998

Asked: Also O=C(O[C@@H]1Cc2c(O)cc(O)cc2O[C@@H]1c1ccc(O)c(O)c1)c1cc(O)c(O)c(O)c1 , if possible.
Given back: 1.01

----------
The following compounds are shown together with reported normalized growth values.
assay: chemical genetic growth profiling, strain panel (AID 1159580);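 note: tested at 20 µM; growth read once vehicle control cultures reached saturation at 30 °C; 1 = growth at the plate median or of vehicle wells; lower values mean less growth of the strain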; conditions: S. cerevisiae deletion strains, growth OD, strain TSCII, hits give low values
About 2,000 (36%) of roughly 5,500 compounds were called active. Inconclusive results (about 18%) are left out. This is one part of the list.
Reply briefly: the number, and no unit.

# Compound, normalized growth
data = [
    ("O=C(Oc1cccc2[nH]ccc12)c1ccc(C(F)(F)F)cc1", 0.967),
]

Asked: Given N/C(Cn1ccc(C(F)(F)F)n1)=N/OS(=O)(=O)c1cccc(Cl)c1Cl , state its recorded normalized growth.
Given back: 0.986

Asked: Also O=C(NCc1ccc(Cl)c(Cl)c1)c1cccnc1OCC(F)(F)F , if possible.
Given back: 0.958

Asked: Also N#C/C(=N/Nc1ccccc1)C(=O)c1ccccc1OC(F)(F)F , if possible.
Given back: 0.902

Asked: Also Cc1ccc(S(=O)(=O)NC(=O)Nc2ccc(Sc3ccccc3)nc2Sc2ccccc2)cc1 , if possible.
Given back: 0.963

Asked: Also COc1ccc(C(CC(=O)c2ccccc2)Sc2ccccc2N)cc1OC (stereo not drawn) , if possible.
Given back: 0.973

Asked: Also COc1cccc(C2CCN(C(=O)c3cccc4ccccc34)CC2)c1 , if possible.
Given back: 0.993

Asked: Also O=C(Nc1cccc(C(F)(F)F)c1)c1cncc(C#Cc2ccccc2)c1 , if possible.
Given back: 0.989

Asked: Also Cc1nn(C)c(C(=O)Sc2ccc(OC(F)(F)F)cc2)c1[N+](=O)[O-] , if possible.
Given back: 0.982

Asked: Also O=C(c1csc(-c2ccc(Cl)cc2)c1)N1CCCCC1 , if possible.
Given back: 0.942

Asked: Also O=C(/C=C/c1ccc2c(c1)OCO2)Nc1ccc(Br)cc1 , if possible.
Given back: 0.968

Asked: Also O=[N+]([O-])c1ccc(-c2noc(-c3ccno3)n2)o1 , if possible.
Given back: 0.0899

Asked: Also CC(C)c1ccc(COC(=O)Nc2ccc(CSc3ccc(Cl)cc3)o2)cc1 , if possible.
Given back: 0.986
